# system_under_test: UniProt:P08172
# Sequence (P08172 whole entry): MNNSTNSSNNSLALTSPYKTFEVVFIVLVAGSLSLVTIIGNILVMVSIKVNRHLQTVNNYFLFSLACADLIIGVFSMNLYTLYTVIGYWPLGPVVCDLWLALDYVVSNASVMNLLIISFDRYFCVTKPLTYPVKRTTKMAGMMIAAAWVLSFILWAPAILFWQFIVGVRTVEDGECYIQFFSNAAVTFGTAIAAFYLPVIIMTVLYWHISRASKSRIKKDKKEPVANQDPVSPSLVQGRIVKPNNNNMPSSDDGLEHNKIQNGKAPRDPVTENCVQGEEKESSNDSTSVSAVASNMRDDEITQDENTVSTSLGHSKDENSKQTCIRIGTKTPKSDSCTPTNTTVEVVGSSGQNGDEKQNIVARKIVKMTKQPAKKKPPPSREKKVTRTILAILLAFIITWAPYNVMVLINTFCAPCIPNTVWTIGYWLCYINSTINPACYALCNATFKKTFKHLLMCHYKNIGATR
# run_conditions: read-out: Receptor activity EC50; allosteric potency at EC20 acetylcholine; M2-GIRK1/4 reporter cells; in some cases mean of two or more determinations
readout_name: EC50 (nM)
Give the value, in units of nM, as a plain number.

Example entries and their recorded answers appear below.
# molecule, scale_unit, recorded_result
rows = [
    ("CC(NC(=O)c1cn(-c2c(F)cc(F)cc2F)c2nc(N3C[C@@H](O)[C@H](O)C3)ccc2c1=O)(C1CC1)C(F)(F)F (stereo partly drawn)", "nM", 9),
    ("O=C(NC(CC(F)(F)F)C1CC1)c1cn(-c2c(F)cc(F)cc2F)c2nc(N3C[C@@H](O)CC3=O)ccc2c1=O (single isomer, unassigned)", "nM", 10),
]

IN: Which value of EC50 has been reported for CCC(NC(=O)c1cn(-c2c(F)cc(F)cc2F)c2nc(N3C[C@@H](O)CC3=O)ccc2c1=O)C(F)(F)C(F)(F)F (single isomer, unassigned) in the records?
OUT: 2

Data credit: patent US20190367516A1
